The measurements presented in this section are drawn from PubChem BioAssay (NCI).

system: SK-MEL-5 melanoma; assay: NCI-60 one-dose screen, 48 h (100 = growth as untreated, 0 = no growth, -100 = all killed); conditions: 10 µM unless noted
About 83,000 compounds went through this panel and 20% of them were active in at least one assay; those are over-represented in the sample as a whole. Activity calls are given as the source filed them. How the source made its calls: active means growth percent below 10; inactive means the rest.
Listed below: growth values for each entry.

MOLECULE	ASSAYED TARGET	growth
O=C(CSc1nc(-c2ccccc2)[nH]c1S(=O)(=O)c1ccccc1)NC1CC1	SK-MEL-5 melanoma	35.6% (inactive)
O=C1/C(=C/c2ccc(F)cc2)COc2ccc(O)cc21	SK-MEL-5 melanoma	98.5% (inactive)
COC(=O)/C(CCC=C(C)C)=C1\[C@@H](OC(C)=O)C[C@@]2(C)[C@H]1C[C@@H](O)[C@H]1[C@@]3(C)CC[C@H](NCCN)[C@@H](C)[C@@H]3CC[C@@]12C	SK-MEL-5 melanoma	88.3% (inactive)
CSc1nnc(-c2cnn3c2NC(c2ccccc2)C3)n1-c1ccc(C(F)(F)F)cc1 (stereo not given)	SK-MEL-5 melanoma	31.3% (inactive)
O=C(CSc1nc2ccc([N+](=O)[O-])cc2[nH]1)Nc1ccc(F)cc1	SK-MEL-5 melanoma	32.5% (inactive)
O=S(=O)(Nc1ccc(Cl)cc1)c1ccc(-c2cnc(C3CC3)o2)cc1	SK-MEL-5 melanoma	15.2% (inactive)
COc1cccc(CNc2ncnc3c2ncn3C2OC(CO)C(O)C2O)c1O (stereo not given)	SK-MEL-5 melanoma	14.4% (inactive)
COc1ccc(-c2nn(-c3ccccc3)cc2/C=C2/SC(=S)N(C)C2=O)cc1	SK-MEL-5 melanoma	98.5% (inactive)
Cc1cc(=O)[nH]c2c(C#N)cnn12	SK-MEL-5 melanoma	99.4% (inactive)
CC(C)(C)c1cc(-c2nc3ccc(N4CCN(S(C)(=O)=O)CC4)cc3[nH]2)cc(C(C)(C)C)c1O	SK-MEL-5 melanoma	95.7% (inactive)
COc1ccc(C/C(C)=C(/c2ccc(OCCN3CCCCC3)cc2)c2ccc(OC(=O)NCc3ccccc3)cc2)cc1	SK-MEL-5 melanoma	-100% (active)
CCN(CC)C(=S)SC(SC(=S)N(CC)CC)C(=O)c1nnn(-c2ccc([N+](=O)[O-])cc2)c1C	SK-MEL-5 melanoma	76.7% (inactive)
COCCn1c(-c2csc(-c3cn(C)c4ccc(OC)cc34)n2)cc2cccnc21	SK-MEL-5 melanoma	65.2% (inactive)
COC(C(=O)[C@@H](O)[C@@H](C)O)[C@@H]1Cc2cc3cc(O[C@H]4C[C@@H](O[C@H]5C[C@@H](O)[C@H](O)C(C)O5)[C@H](O)C(C)O4)c(C)c(O)c3c(O)c2C(=O)[C@H]1O[C@H]1C[C@@H](O[C@H]2C[C@@H](O[C@H]3C[C@@H](O)[C@H](OC)C(C)O3)[C@@H](O)C(C)O2)[C@H](O)C(C)O1 (stereo not given in full)	SK-MEL-5 melanoma	-36.9% (active)
O=C(Cn1c(=O)sc2ccccc21)NNS(=O)(=O)c1ccccc1[N+](=O)[O-]	SK-MEL-5 melanoma	101% (inactive)
N=C(N)c1ccc(-c2ccc(-c3cc(Cl)cc(Cl)c3)o2)o1	SK-MEL-5 melanoma	16.2% (inactive)
CC(C)N1CN2C(=S)NC3C2N(C1)C(=S)N3C (stereo not given)	SK-MEL-5 melanoma	97.9% (inactive)
N#Cc1cccc(-c2c(-c3ccc4ccccc4c3)oc3ccccc3c2=O)c1	SK-MEL-5 melanoma	31% (inactive)
O=C1Nc2ccc(I)cc2C1=O	SK-MEL-5 melanoma	101% (inactive)
O=C(OCc1ccc2cccc(O)c2n1)N1CCN(C(=O)c2cc3cc(F)ccc3[nH]2)CC1	SK-MEL-5 melanoma	-79.6% (active)
